- Assay text: ovarian cancer cell viability with rucaparib, profiling panel, oncology-focused library, rucaparib conditional (AID 1508598)
- Condition: patient-derived ovarian cancer cells, CellTiter-Glo viability, 144 h; at 0.000305 µM; OCI-P5x cells; without rucaparib; active compounds read low
Experimental readout: viability (%)
Give bare numbers, in %.

Sample records with viability:
# Compound, Recorded measurement
data = [
    ("O=c1[nH]cc(F)c(=O)[nH]1", 111),
    ("CN(CCOc1ccc(CC2SC(=O)NC2=O)cc1)c1ccccn1 (centres undefined)", 99.1),
]

State the recorded viability for every item in the following list.
1. O=c1[nH]cnc2[nH]ncc12
2. Cc1ccc(-c2cc(C(F)(F)F)nn2-c2ccc(S(N)(=O)=O)cc2)cc1

Output:
[127, 92.4]

* * *

- Assay text: glucagon-like peptide 1 release enhancers, primary assay, NCI-H716 cell line, NPC library (AID 1117341); further: reference of the scale not given here
- Condition: NCI-H716 cells, at 10 µM, active compounds read high
Could you please report measured GLP1 secretion stimulation for the items listed next?
Answers are plain numbers, in %.

Sample records with GLP1 secretion stimulation:
# Cpd smiles, Experimental readout, Recorded measurement
rows = [
    ("c1ccc(OCc2ccc(CCCN3CCOCC3)cc2)cc1", "GLP1 secretion stimulation", -0.1),
    ("c1ccc(-n2cnnn2)cc1", "GLP1 secretion stimulation", -5),
    ("CC(=O)OCC(=O)[C@@]12OC(C)(C)O[C@@H]1C[C@H]1[C@@H]3C[C@H](F)C4=CC(=O)C=C[C@]4(C)[C@@]3(F)[C@@H](O)C[C@@]12C", "GLP1 secretion stimulation", 0.7),
    ("CCCCCCn1c(=O)c2c(ncn2C)n(C)c1=O", "GLP1 secretion stimulation", 1.6),
]

--- query ---
Task: # get_value(readout='GLP1 secretion stimulation', item= O=P(O)(O)C(O)(Cc1cnc2ccccn12)P(=O)(O)O )
Output: 4.3

* * *

- Assay text: IRF3 reporter activation in THP-1 macrophages, cell-based, PMA-stimulated THP-1, luminescence (AID 1053176)
- Condition: PMA-differentiated THP-1, IRF3 reporter luminescence; active compounds read high
Label Met when fraction signal >= -0.002; otherwise Not met.

# Compound, Assigned class
rows = [
    ("Cn1cc(C2=C(c3ccccc3C(F)(F)F)C(=O)NC2=O)c2ccccc21", "Met"),
    ("NC(=O)c1ccc(Oc2nccc(-c3c(-c4ccc(F)cc4)ncn3C3CCNCC3)n2)cc1", "Not met"),
    ("CC(C)COC(=O)c1ccc2[nH]c(O)c(C=Nc3ccc(S(N)(=O)=O)cc3)c2c1", "Not met"),
    ("Cn1cc(C2=C(c3cn(C)c4ccc(OCc5ccccc5)cc34)C(=O)NC2=O)c2ccccc21", "Not met"),
]

Turning to the following compound.
Task: // inclusive: fraction signal at least -0.002? input: N#Cc1c(NC(=O)c2ccc(F)c3ccccc23)sc2c1CCCC2
Output: Met

* * *

- Assay text: inhibition of endothelial tube formation, primary screen, imaging, VEGF stimulated, CD31 staining, tube area, NPC library (AID 1117340)
- Condition: VEGF-stimulated ADSC/ECFC co-culture, at 10 µM
Activity calls are given as the source filed them.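 Rule for the calls: active = compound that reduces growth-factor-driven endothelial tube area in a mixed cell culture, no cutoff stated; inactive = the rest.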
Permitted responses: active, inactive

Examples from the recorded data:
# Compound, Assigned class
measured = [
    ("Cc1c(C)c2c(c(C)c1OC(=O)CCC(=O)OCCO)CC[C@@](C)(CCC[C@H](C)CCC[C@H](C)CCCC(C)C)O2", "inactive"),
    ("CC(=O)OCC(CCn1cnc2cnc(N)nc21)COC(C)=O", "inactive"),
    ("O=C(O)Cc1ccccc1Oc1ccc(Cl)cc1Cl", "inactive"),
    ("C/C(=N\\O)c1ccc(OCC(=O)N2CCCCC2)cc1", "inactive"),
    ("CC(=O)c1cc2ccccc2s1", "inactive"),
    ("COc1ccc(S(=O)(=O)N2c3ccc(Cl)cc3[C@@](O)(c3ccccc3Cl)[C@H]2C(=O)N2CCC[C@@H]2C(N)=O)cc1OC", "inactive"),
    ("Cc1ccc(S(=O)(=O)NC(=O)NC2CCCCCCC2)cc1", "inactive"),
    ("O=C(O)c1ccccn1", "inactive"),
]

Task: // param item: Nc1ccc(C(=O)N2CC3CC(CN(Cc4ccccc4)C3)C2)cc1 ; yields the recorded call
Output: inactive

Task: // param item: CC(C)(C)c1ccc(C(=O)CCCCl)cc1 ; yields the recorded call
Output: inactive

Task: // param item: Nc1ccc([N+](=O)[O-])c(C(F)(F)F)c1 ; yields the recorded call
Output: inactive

Task: // param item: CCOC(=O)c1cc(=O)c2c(OCC(COc3cccc4oc(C(=O)OCC)cc(=O)c34)OC(=O)[C@@H](N)CCCCN)cccc2o1 ; yields the recorded call
Output: inactive

Task: // param item: CSc1ccc2c(c1)N(CCC1CCCCN1C)c1ccccc1S2 (centres undefined) ; yields the recorded call
Output: active
